- TEST_PROTOCOL: in vitro
- MEASUREMENT_SETUP: human
Consider the following molecules and their measured Papp A→B readings.

MOLECULE	Papp A→B / ×10⁻⁶ cm/s
CC(C)C[C@H](N)C(=O)O [leucine]	18.5
CC(=O)O[C@H]1C(=O)[C@@]2(C)[C@H]([C@H](OC(=O)c3ccccc3)[C@]3(O)C[C@H](OC(=O)[C@H](O)[C@@H](NC(=O)c4ccccc4)c4ccccc4)C(C)=C1C3(C)C)[C@]1(OC(C)=O)CO[C@@H]1C[C@@H]2O [taxol]	6.3

====

- TEST_PROTOCOL: in vitro
- MEASUREMENT_SETUP: human
ENDPOINT: Papp

MOLECULE	ENDPOINT	VALUE_MEASURED
NCC1(CC(=O)O)CCCCC1	Papp	12 ×10⁻⁶ cm/s
CC(C)NCC(O)COc1cccc2ccccc12 (stereo not drawn)	Papp	22 to 26 ×10⁻⁶ cm/s
Cn1c(=O)c2c(ncn2C)n(C)c1=O	Papp	27 to 31 ×10⁻⁶ cm/s
O=C(O)c1cc(=O)c2ccccc2[nH]1	Papp	0.3 ×10⁻⁶ cm/s
CC(C)C[C@H](N)C(=O)O	Papp	18 to 20 ×10⁻⁶ cm/s
COc1cccc2c1C(=O)c1c(O)c3c(c(O)c1C2=O)C[C@@](O)(C(C)=O)C[C@@H]3O[C@H]1C[C@H](N)[C@H](O)[C@H](C)O1	Papp	7 to 9 ×10⁻⁶ cm/s

Provenance of the data: paper PMC7226989
